# Tested Target: the molecule itself
# Assay: SEC
Measurement Kind: stoichiometry N
// no unit, no text: just the number

-- ask Which stoichiometry N reading was recorded for the protein D2 domain of EccCb1 (35-316 residues), K90A mutant (domain or fragment) NPVPLNELIARDRRQPLRFALGIMDEPRRHLQDVWGVDVSGAGGNIGIGGAPQTGASTLLQTMVMSAAATHSPRNVQFYCIDLGGGGLIYLENLPHVGGVANRSEPDKVNRVVAEMQAVMRQRETTFKEHRVGSIGMYRQLRDDPSQPVASDPYGDVFLIIDGWPGFVGEFPDLEGQVQDLAAQGLAFGVHVIISTPRWTELKSRVRDYLGTKIEFRLGDVNETQIDRITREIPANRPGRAVSMEKHHLMIGVPRFDGVHSADNLVEAITAGVTQIASQHTE ?
-- reply 2
